target: Recombinant human Src (Homo sapiens); construct: purchased Upstate (Lake Placid, N.Y.); assay: Enzymatic assay on isolated Src; type: biochemical; details: mean of at least two experiments; read-out: Enzymatic Data (Ki, μM) c-Src
Sequence (P12931 whole entry): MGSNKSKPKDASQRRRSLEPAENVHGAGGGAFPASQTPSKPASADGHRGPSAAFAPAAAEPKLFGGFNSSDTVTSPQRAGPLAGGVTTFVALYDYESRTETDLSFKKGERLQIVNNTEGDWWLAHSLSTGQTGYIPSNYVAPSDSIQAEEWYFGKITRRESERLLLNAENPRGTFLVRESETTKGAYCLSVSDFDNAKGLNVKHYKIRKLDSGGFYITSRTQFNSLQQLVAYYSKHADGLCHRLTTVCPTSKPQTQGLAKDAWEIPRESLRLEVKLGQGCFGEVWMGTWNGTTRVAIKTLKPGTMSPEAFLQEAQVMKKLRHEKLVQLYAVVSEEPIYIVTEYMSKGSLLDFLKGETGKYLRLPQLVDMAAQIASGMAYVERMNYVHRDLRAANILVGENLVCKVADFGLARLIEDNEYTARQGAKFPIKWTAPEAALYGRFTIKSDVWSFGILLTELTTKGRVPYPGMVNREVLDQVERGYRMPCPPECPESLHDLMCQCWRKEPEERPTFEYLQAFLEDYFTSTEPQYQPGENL
Binary label based on Ki with cut-off 0.6 µM: below gives fulfilled, not below gives not fulfilled.

For orientation, consider the following solved cases.
CSc1nc(Nc2ccccc2)c2cnn(CCc3ccccc3)c2n1 : not fulfilled
CSc1nc(Nc2cccc(Br)c2)c2cnn(CCc3ccccc3)c2n1 : fulfilled

Input: Does Fc1ccccc1CNc1nc(SCCN2CCOCC2)nc2c1cnn2CCc1ccccc1 have Ki strictly under 0.6 µM?
Output: fulfilled

Input: Does CC(Cn1ncc2c(Nc3ccccc3)nc(SCCN3CCOCC3)nc21)c1ccccc1 (stereo not shown) have Ki strictly under 0.6 µM?
Output: not fulfilled

Input: Does CC(Cn1ncc2c(Nc3cccc(F)c3)nc(SCCN3CCOCC3)nc21)c1ccccc1 (stereo not shown) have Ki strictly under 0.6 µM?
Output: not fulfilled

Input: Does CCSc1nc(Nc2cccc(Br)c2)c2cnn(CC(C)c3ccccc3)c2n1 (stereo not shown) have Ki strictly under 0.6 µM?
Output: fulfilled

Input: Does CSc1nc(Nc2cccc(O)c2)c2cnn(CCc3ccccc3)c2n1 have Ki strictly under 0.6 µM?
Output: not fulfilled

Input: Does CCSc1nc(Nc2cccc(Cl)c2)c2cnn(CC(C)c3ccccc3)c2n1 (stereo not shown) have Ki strictly under 0.6 µM?
Output: fulfilled

Input: Does CC(C)Sc1nc(Nc2cccc(F)c2)c2cnn(CC(Cl)c3ccccc3)c2n1 (stereo not shown) have Ki strictly under 0.6 µM?
Output: fulfilled

Input: Does CC(C)Sc1nc(Nc2ccccc2)c2cnn(CC(Cl)c3ccccc3)c2n1 (stereo not shown) have Ki strictly under 0.6 µM?
Output: fulfilled

----------
The following molecules are listed with their measured Ki values.
biological target: Recombinant human Abl (Homo sapiens, UniProt P00519); construct: purchased Upstate; experiment: Enzymatic assay on isolated Abl; assay type: biochemical; details: mean of at least two experiments
Sequence (P00519 whole entry): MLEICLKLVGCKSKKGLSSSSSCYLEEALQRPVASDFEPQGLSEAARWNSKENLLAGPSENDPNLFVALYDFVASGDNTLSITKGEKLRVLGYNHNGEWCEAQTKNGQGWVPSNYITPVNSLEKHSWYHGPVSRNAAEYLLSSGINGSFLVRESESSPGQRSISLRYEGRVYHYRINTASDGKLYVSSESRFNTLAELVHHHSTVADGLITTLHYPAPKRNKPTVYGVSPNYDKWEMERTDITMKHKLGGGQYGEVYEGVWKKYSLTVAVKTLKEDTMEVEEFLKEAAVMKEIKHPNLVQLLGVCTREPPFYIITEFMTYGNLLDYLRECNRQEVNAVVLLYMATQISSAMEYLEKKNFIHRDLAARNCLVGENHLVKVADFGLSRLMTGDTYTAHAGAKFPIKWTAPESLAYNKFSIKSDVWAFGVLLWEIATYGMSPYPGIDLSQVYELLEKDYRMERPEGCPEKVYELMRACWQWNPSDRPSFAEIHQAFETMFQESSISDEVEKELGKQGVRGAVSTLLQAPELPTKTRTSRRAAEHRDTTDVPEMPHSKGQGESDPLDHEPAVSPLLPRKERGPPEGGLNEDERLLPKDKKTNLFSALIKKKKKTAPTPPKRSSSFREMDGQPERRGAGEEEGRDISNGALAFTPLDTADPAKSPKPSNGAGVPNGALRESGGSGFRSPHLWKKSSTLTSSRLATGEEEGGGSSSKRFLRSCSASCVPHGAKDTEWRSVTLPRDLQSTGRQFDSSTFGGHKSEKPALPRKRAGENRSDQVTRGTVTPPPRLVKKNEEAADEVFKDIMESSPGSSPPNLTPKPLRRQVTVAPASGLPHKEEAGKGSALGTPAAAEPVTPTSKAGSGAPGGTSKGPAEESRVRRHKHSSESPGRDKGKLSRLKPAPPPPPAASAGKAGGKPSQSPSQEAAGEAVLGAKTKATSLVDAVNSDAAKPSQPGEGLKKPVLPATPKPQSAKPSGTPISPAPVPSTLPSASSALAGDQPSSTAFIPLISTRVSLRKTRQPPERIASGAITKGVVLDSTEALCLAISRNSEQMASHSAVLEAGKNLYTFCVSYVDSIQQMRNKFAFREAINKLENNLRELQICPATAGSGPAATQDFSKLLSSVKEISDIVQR
Quick note: give the figure in µM, leave out the unit.

Here is how some molecules turned out for Ki.
CC(C)Sc1nc(Nc2cccc(O)c2)c2cnn(CC(Cl)c3ccccc3)c2n1 (stereo not shown) : 0.12
Clc1cccc(Nc2nc(SCCN3CCOCC3)nc3c2cnn3CC(Cl)c2ccccc2)c1 (stereo not shown) [Si181, reference compound] : 0.12
ClC(Cn1ncc2c(Nc3cccc(Br)c3)nc(SCCN3CCOCC3)nc21)c1ccccc1 (stereo not shown) : 0.12
CSc1nc(Nc2cccc(O)c2)c2cnn(CC(Cl)c3ccccc3)c2n1 (stereo not shown) : 0.15

Now consider the entry below.
Input: Which Ki is reported with Recombinant human Abl (Homo sapiens, UniProt P00519) for this entry: Oc1cccc(Nc2nc(SC3CCCC3)nc3c2cnn3CC(Cl)c2ccccc2)c1 (stereo not shown) ?
Output: 0.15

----------
assay: Water solubility assay; details: Table 6
The following compounds are listed with their measured H2O Solubility values.
Mention the unit after the number when you answer.

Here is how some compounds turned out for H2O Solubility.
CC(C)Sc1nc(Nc2cccc(O)c2)c2cnn(CC(Cl)c3ccccc3)c2n1 (stereo not shown) : 0.9 µg/mL
ClC(Cn1ncc2c(Nc3cccc(Br)c3)nc(SCCN3CCOCC3)nc21)c1ccccc1 (stereo not shown) : 3.7 µg/mL
Cl.Oc1cccc(Nc2nc(SCCN3CCOCC3)nc3c2cnn3CCc2ccccc2)c1 : 97 µg/mL
Clc1cccc(Nc2nc(SCCN3CCOCC3)nc3c2cnn3CC(Cl)c2ccccc2)c1 (stereo not shown) [Si181, reference compound] : 0.1 µg/mL
Oc1cccc(Nc2nc(SC3CCCC3)nc3c2cnn3CC(Cl)c2ccccc2)c1 (stereo not shown) : 0.6 µg/mL
CC(Cn1ncc2c(Nc3cccc(O)c3)nc(SCCN3CCOCC3)nc21)c1ccccc1.Cl (stereo not shown) : 1 µg/mL

Input: // lookup H2O Solubility for CSc1nc(Nc2cccc(O)c2)c2cnn(CC(Cl)c3ccccc3)c2n1 (stereo not shown)
Output: 4.3 µg/mL
